Target: T1, recombinant cynomolgus monkey PD-L1 with a C-terminal myc-myc-hexahistidine tag (cynomolgus monkey (Macaca fascicularis))
T1 construct: also called MfPD-L1-MMH; MfPD-L1-MMH Monomer
T1 sequence (chain, as listed by the source limits assumed): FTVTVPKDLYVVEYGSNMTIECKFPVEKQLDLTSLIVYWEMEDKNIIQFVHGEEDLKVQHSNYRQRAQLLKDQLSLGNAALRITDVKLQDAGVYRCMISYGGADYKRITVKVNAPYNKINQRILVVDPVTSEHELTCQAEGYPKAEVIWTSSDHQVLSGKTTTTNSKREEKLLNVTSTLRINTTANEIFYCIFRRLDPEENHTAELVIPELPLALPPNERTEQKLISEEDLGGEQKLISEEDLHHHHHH
Assay: SPR (Biacore), mAb captured, 37C

{"columns": ["Binder", "Unit label", "koff"],
 "data": [
  ["H1H9329P (antibody, human IgG1, V domains shown) VH: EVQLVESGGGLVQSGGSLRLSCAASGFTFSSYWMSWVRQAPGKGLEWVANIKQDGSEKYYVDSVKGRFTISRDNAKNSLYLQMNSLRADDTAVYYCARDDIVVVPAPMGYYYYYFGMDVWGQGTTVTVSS VL: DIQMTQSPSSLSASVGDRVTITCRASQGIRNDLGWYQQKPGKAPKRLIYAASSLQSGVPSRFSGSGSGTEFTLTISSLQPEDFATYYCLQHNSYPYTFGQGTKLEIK", "s⁻¹", 0.364]
]}
